Entries with reported MIC on DNA gyrase (Staphylococcus aureus) (UniProt P0A0K8+P20831)
Sequence (P0A0K8 2-644 limits assumed): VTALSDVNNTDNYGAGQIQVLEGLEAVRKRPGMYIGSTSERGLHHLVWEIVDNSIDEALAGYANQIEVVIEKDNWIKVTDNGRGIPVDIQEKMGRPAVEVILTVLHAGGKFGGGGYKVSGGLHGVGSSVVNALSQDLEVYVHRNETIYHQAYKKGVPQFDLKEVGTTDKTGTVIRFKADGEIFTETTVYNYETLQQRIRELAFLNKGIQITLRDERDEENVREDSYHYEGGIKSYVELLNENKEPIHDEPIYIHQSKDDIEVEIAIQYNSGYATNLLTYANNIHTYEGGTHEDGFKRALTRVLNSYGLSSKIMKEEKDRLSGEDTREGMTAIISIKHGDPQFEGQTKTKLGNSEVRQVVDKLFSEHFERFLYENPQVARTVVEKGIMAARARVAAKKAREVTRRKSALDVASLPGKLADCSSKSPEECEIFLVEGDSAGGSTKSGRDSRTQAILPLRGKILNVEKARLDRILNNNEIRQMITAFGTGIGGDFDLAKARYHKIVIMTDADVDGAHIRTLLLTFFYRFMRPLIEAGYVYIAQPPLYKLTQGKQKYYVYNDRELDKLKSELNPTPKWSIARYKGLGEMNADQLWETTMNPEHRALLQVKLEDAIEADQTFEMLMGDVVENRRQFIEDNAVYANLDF
Sequence (P20831 whole entry partner): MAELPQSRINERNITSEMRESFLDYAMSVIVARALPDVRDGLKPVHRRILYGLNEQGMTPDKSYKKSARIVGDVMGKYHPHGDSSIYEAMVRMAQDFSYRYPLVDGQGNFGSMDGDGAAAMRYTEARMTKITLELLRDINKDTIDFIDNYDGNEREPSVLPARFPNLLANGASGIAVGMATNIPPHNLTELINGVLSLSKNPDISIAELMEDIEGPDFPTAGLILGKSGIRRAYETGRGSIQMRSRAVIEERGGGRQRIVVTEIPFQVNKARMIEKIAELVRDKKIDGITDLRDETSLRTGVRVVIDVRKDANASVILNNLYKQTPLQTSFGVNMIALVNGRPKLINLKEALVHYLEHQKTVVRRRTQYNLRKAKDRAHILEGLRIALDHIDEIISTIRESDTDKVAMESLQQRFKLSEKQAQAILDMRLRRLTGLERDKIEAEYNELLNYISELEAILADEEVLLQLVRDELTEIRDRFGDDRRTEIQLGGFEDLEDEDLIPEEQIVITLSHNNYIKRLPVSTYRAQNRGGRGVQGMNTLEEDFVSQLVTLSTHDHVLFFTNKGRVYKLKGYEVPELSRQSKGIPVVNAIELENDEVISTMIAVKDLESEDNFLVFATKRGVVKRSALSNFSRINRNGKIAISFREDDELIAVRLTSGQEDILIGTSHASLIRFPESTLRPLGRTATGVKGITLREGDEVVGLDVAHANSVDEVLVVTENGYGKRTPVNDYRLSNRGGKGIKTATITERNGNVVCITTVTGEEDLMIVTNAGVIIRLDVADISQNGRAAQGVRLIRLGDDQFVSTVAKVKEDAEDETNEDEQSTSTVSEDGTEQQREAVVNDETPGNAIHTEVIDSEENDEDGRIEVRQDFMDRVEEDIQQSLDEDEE
measurement type: MIC (µM)

substance_smiles=O=C(O)[C@H](Cc1ccccc1)N1C(=O)/C(=C/c2cccc(Oc3cccc(Cl)c3)c2)SC1=S measurement_type=MIC value_measured=10
substance_smiles=O=C(O)[C@H](Cc1ccccc1)N1C(=O)/C(=C/c2cccc(Cc3ccc(Cl)c(Cl)c3)c2)SC1=S measurement_type=MIC value_measured=7.5
substance_smiles=O=C(O)[C@@H](Cc1ccccc1)N1C(=O)/C(=C/c2cccc(Oc3ccc(F)cc3)c2)SC1=S measurement_type=MIC value_measured=17.5
substance_smiles=O=C(c1ccccc1)c1cccc(/C=C2\SC(=S)N([C@@H](Cc3ccccc3)C(=O)O)C2=O)c1 measurement_type=MIC value_measured=50
substance_smiles=O=C(O)[C@H](Cc1ccccc1)N1C(=O)/C(=C/c2cccc(-c3ccccc3)c2)SC1=S measurement_type=MIC value_measured=17.5
substance_smiles=O=C(O)[C@H](Cc1ccccc1)N1C(=O)/C(=C/c2cccc(Cc3ccccc3)c2)SC1=S measurement_type=MIC value_measured=25
substance_smiles=O=C(O)[C@H](Cc1ccccc1)N1C(=O)/C(=C/c2cccc(Oc3ccc(Cl)c(Cl)c3)c2)SC1=S measurement_type=MIC value_measured=5
substance_smiles=O=C(O)[C@H](Cc1ccccc1)N1C(=O)/C(=C/c2cccc(OC/C=C\c3ccccc3)c2)SC1=S measurement_type=MIC value_measured=10

----------
system: Staphylococcus aureus; assay: Inhibition of Staphylococcus aureus Topoisomerase 4 assessed as inhibition of supercoiled pBR322 DNA relaxation after 30 mins by agarose gel electrophoresis
measurement type: MIC (µM)

substance_smiles=O=C(O)[C@H](Cc1ccccc1)N1C(=O)/C(=C/c2cccc(Oc3ccccc3)c2)SC1=S subject_of_test="Staphylococcus aureus" measurement_unit=µM value_measured=10
substance_smiles=O=C(O)[C@H](Cc1ccccc1)N1C(=O)/C(=C/c2cccc(OC/C=C\c3ccccc3)c2)SC1=S subject_of_test="Staphylococcus aureus" measurement_unit=µM value_measured=5
substance_smiles=CO[C@@H]1[C@@H](OC(N)=O)[C@@H](O)[C@H](Oc2ccc3c(O)c(NC(=O)c4ccc(O)c(CC=C(C)C)c4)c(=O)oc3c2C)OC1(C)C subject_of_test="Staphylococcus aureus" measurement_unit=µM value_measured=2.5
substance_smiles=O=C(O)[C@H](Cc1ccccc1)N1C(=O)/C(=C/c2cccc(OCc3ccccc3)c2)SC1=S subject_of_test="Staphylococcus aureus" measurement_unit=µM value_measured=17.5
substance_smiles=O=C(O)[C@H](Cc1ccccc1)N1C(=O)/C(=C/c2cccc(Cc3ccc(Cl)c(Cl)c3)c2)SC1=S subject_of_test="Staphylococcus aureus" measurement_unit=µM value_measured=0.75
substance_smiles=O=C(O)[C@H](Cc1ccccc1)N1C(=O)/C(=C/c2cccc(Oc3cccc(Cl)c3)c2)SC1=S subject_of_test="Staphylococcus aureus" measurement_unit=µM value_measured=7.5
substance_smiles=O=C(O)[C@H](Cc1ccccc1)N1C(=O)/C(=C/c2cccc(Oc3ccc(Cl)c(Cl)c3)c2)SC1=S subject_of_test="Staphylococcus aureus" measurement_unit=µM value_measured=2.5
substance_smiles=O=C(O)[C@@H](Cc1ccccc1)N1C(=O)/C(=C/c2cccc(Oc3ccc(F)cc3)c2)SC1=S subject_of_test="Staphylococcus aureus" measurement_unit=µM value_measured=5
substance_smiles=O=C(O)[C@H](Cc1ccccc1)N1C(=O)/C(=C/c2cccc(Cc3ccccc3)c2)SC1=S subject_of_test="Staphylococcus aureus" measurement_unit=µM value_measured=17.5
substance_smiles=O=C(O)[C@H](Cc1ccccc1)N1C(=O)/C(=C/c2cccc(-c3ccc(Cl)c(Cl)c3)c2)SC1=S subject_of_test="Staphylococcus aureus" measurement_unit=µM value_measured=10
substance_smiles=O=C(O)[C@H](Cc1ccccc1)N1C(=O)/C(=C/c2cccc(-c3ccccc3)c2)SC1=S subject_of_test="Staphylococcus aureus" measurement_unit=µM value_measured=0.5
substance_smiles=O=C(c1ccccc1)c1cccc(/C=C2\SC(=S)N([C@@H](Cc3ccccc3)C(=O)O)C2=O)c1 subject_of_test="Staphylococcus aureus" measurement_unit=µM value_measured=50
